- TGT: MAP kinase-interacting serine/threonine-protein kinase 2 (Homo sapiens)
- EXPERIMENTAL_SETUP: at 0.1 µM
- Description: GSK_PKIS: MNK2 mean inhibition at 0.1 uM [Nanosyn]
Reported inhibition by item:
OBSERVED_PROPERTY: inhibition (%)

COMPOUND: CN1CCC(C(=O)Nc2n[nH]c3nnc(-c4ccccc4)cc23)CC1
TGT: MAP kinase-interacting serine/threonine-protein kinase 2 (Homo sapiens)
UNIT_ANNOTATION: %
MEASURED_RESULT: 2.9
//
COMPOUND: CCc1cccc(NC(=O)Nc2ccc(Oc3ccc4nc(NC(=O)OC)[nH]c4c3)cc2)c1
TGT: MAP kinase-interacting serine/threonine-protein kinase 2 (Homo sapiens)
UNIT_ANNOTATION: %
MEASURED_RESULT: 4.24
//
COMPOUND: Nc1ncnc2occ(-c3ccc(NC(=O)Nc4cc(C(F)(F)F)cc(C(F)(F)F)c4)cc3)c12
TGT: MAP kinase-interacting serine/threonine-protein kinase 2 (Homo sapiens)
UNIT_ANNOTATION: %
MEASURED_RESULT: 0.38
//
COMPOUND: CCn1c(-c2nonc2N)nc2ccncc21
TGT: MAP kinase-interacting serine/threonine-protein kinase 2 (Homo sapiens)
UNIT_ANNOTATION: %
MEASURED_RESULT: 0.41
//
COMPOUND: CNC(=O)c1cncc(/C=C/c2c(Cl)cccc2Cl)c1
TGT: MAP kinase-interacting serine/threonine-protein kinase 2 (Homo sapiens)
UNIT_ANNOTATION: %
MEASURED_RESULT: 3.42
//
COMPOUND: CS(=O)(=O)Nc1ccc(N/C=C2\C(=O)Nc3ccccc32)cc1
TGT: MAP kinase-interacting serine/threonine-protein kinase 2 (Homo sapiens)
UNIT_ANNOTATION: %
MEASURED_RESULT: 0.01
//
COMPOUND: COc1cc(C=NNc2ncnc3c2cnn3-c2ccccc2)ccc1O
TGT: MAP kinase-interacting serine/threonine-protein kinase 2 (Homo sapiens)
UNIT_ANNOTATION: %
MEASURED_RESULT: 13.7
//
COMPOUND: CS(=O)(=O)CCNCc1nc(-c2ccc3ncnc(Nc4ccc(F)c(Cl)c4)c3c2)cs1
TGT: MAP kinase-interacting serine/threonine-protein kinase 2 (Homo sapiens)
UNIT_ANNOTATION: %
MEASURED_RESULT: 13.4
//
COMPOUND: CC1=C(C(=O)Nc2ccc3[nH]ncc3c2)C(c2ccc(Cl)c(Cl)c2)CC(=O)N1 (stereo unspecified)
TGT: MAP kinase-interacting serine/threonine-protein kinase 2 (Homo sapiens)
UNIT_ANNOTATION: %
MEASURED_RESULT: 0.25
//
COMPOUND: Nc1nc(-c2ccc3c(c2)C(=Cc2cc(Br)c(O)c(Br)c2)C(=O)N3)cs1
TGT: MAP kinase-interacting serine/threonine-protein kinase 2 (Homo sapiens)
UNIT_ANNOTATION: %
MEASURED_RESULT: 0.49
//
COMPOUND: CC1=C(C(=O)Nc2ccc3[nH]ncc3c2)C(c2ccc3ccccc3c2)CC(=O)N1 (stereo unspecified)
TGT: MAP kinase-interacting serine/threonine-protein kinase 2 (Homo sapiens)
UNIT_ANNOTATION: %
MEASURED_RESULT: 1.21
//
COMPOUND: COc1ccc(-c2nn3ncccc3c2-c2ccnc(Nc3ccc(Cl)c(C(F)(F)F)c3)n2)cc1
TGT: MAP kinase-interacting serine/threonine-protein kinase 2 (Homo sapiens)
UNIT_ANNOTATION: %
MEASURED_RESULT: 1.9
//
COMPOUND: O=C1NC(=O)C(c2ccc(Cl)cc2)=C1Nc1ccc(Cl)c(C(=O)O)c1
TGT: MAP kinase-interacting serine/threonine-protein kinase 2 (Homo sapiens)
UNIT_ANNOTATION: %
MEASURED_RESULT: -0.57
//
COMPOUND: CCn1c(-c2nonc2N)nc2cncc(C(=O)N3CCNCC3)c21
TGT: MAP kinase-interacting serine/threonine-protein kinase 2 (Homo sapiens)
UNIT_ANNOTATION: %
MEASURED_RESULT: 1.78
//
COMPOUND: CCn1c(-c2nonc2N)nc2c(C#CC(C)(C)O)nc(CN3CCCC3)cc21
TGT: MAP kinase-interacting serine/threonine-protein kinase 2 (Homo sapiens)
UNIT_ANNOTATION: %
MEASURED_RESULT: -0.06
//
COMPOUND: N#Cc1c(NC(=O)c2cccc3ccccc23)sc2c1CCCC2
TGT: MAP kinase-interacting serine/threonine-protein kinase 2 (Homo sapiens)
UNIT_ANNOTATION: %
MEASURED_RESULT: 1.09
//
COMPOUND: COc1ccccc1Nc1ncc(-c2ccccc2)o1
TGT: MAP kinase-interacting serine/threonine-protein kinase 2 (Homo sapiens)
UNIT_ANNOTATION: %
MEASURED_RESULT: 1.93
//
COMPOUND: Cc1nnc(-c2ccc(C)c(-c3ccc(C(=O)Nc4cccc(C#N)c4)cc3)c2)o1
TGT: MAP kinase-interacting serine/threonine-protein kinase 2 (Homo sapiens)
UNIT_ANNOTATION: %
MEASURED_RESULT: 0.9
//
COMPOUND: [O-][S+]1CCN(Cc2ccc(-c3ccc4ncnc(Nc5ccc(OCc6ccccc6)c(F)c5)c4c3)o2)CC1
TGT: MAP kinase-interacting serine/threonine-protein kinase 2 (Homo sapiens)
UNIT_ANNOTATION: %
MEASURED_RESULT: 1.32
//
COMPOUND: CCCN1CCC(Oc2cc(Nc3nc(Nc4cccc(F)c4C(N)=O)c4cc[nH]c4n3)c(OC)cc2Cl)CC1
TGT: MAP kinase-interacting serine/threonine-protein kinase 2 (Homo sapiens)
UNIT_ANNOTATION: %
MEASURED_RESULT: 0.85
//
COMPOUND: CC(C)=Cc1cccc2c1/C(=N/Nc1ccc(S(N)(=O)=O)cc1)C(=O)N2
TGT: MAP kinase-interacting serine/threonine-protein kinase 2 (Homo sapiens)
UNIT_ANNOTATION: %
MEASURED_RESULT: 1.9

----------
- Test system: Epidermal growth factor receptor (Homo sapiens), P00533 [L858R,T790M]
- Sequence (P00533 whole entry T790M/L858R, looked up): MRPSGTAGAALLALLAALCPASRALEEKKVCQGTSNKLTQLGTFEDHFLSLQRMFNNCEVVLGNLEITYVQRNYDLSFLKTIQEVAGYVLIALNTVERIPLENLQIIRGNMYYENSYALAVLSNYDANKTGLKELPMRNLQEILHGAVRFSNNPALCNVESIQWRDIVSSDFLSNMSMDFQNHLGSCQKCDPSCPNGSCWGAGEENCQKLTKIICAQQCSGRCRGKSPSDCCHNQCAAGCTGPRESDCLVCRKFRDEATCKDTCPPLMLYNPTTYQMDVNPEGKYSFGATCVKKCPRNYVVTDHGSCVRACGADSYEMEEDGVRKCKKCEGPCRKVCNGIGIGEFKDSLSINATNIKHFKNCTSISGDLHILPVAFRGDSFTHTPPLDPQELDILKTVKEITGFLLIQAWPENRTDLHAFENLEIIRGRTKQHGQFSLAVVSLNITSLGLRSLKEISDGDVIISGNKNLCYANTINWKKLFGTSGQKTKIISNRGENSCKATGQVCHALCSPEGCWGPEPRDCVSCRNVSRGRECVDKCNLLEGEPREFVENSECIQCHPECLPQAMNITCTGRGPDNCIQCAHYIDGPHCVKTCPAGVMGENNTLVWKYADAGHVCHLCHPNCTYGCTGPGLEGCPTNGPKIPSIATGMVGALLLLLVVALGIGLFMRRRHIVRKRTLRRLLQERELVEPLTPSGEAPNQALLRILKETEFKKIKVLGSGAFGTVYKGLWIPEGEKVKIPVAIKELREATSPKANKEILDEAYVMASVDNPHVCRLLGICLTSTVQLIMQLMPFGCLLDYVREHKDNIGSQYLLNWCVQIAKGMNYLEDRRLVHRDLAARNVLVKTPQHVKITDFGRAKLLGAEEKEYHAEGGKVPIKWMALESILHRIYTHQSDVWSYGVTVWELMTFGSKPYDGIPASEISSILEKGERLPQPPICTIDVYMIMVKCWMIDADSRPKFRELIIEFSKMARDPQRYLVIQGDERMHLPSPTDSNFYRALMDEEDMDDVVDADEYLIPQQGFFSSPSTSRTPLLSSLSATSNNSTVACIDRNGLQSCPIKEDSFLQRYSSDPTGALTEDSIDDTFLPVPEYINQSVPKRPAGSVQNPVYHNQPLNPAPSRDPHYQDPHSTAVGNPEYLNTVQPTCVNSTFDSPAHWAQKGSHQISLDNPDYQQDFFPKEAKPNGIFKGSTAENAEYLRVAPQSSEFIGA
- EXPERIMENTAL_SETUP: at 0.1 µM
Reported inhibition by item:
OBSERVED_PROPERTY: inhibition (%)

CPD_SMILES: COc1cc(C=NNc2ncnc3c2cnn3-c2ccccc2)ccc1O
TGT: Epidermal growth factor receptor (Homo sapiens), P00533 [L858R,T790M]
MEASURED_RESULT: 3.12

CPD_SMILES: O=C1NC(=O)C(c2cccc(Cl)c2)=C1Nc1ccc(O)c(Cl)c1
TGT: Epidermal growth factor receptor (Homo sapiens), P00533 [L858R,T790M]
MEASURED_RESULT: 0.92

CPD_SMILES: Nc1nc(-c2ccccn2)c(-c2ccc3ncccc3n2)s1
TGT: Epidermal growth factor receptor (Homo sapiens), P00533 [L858R,T790M]
MEASURED_RESULT: 2.24

CPD_SMILES: Nc1nc(-c2ccc3c(c2)C(=Cc2cc(Br)c(O)c(Br)c2)C(=O)N3)cs1
TGT: Epidermal growth factor receptor (Homo sapiens), P00533 [L858R,T790M]
MEASURED_RESULT: -0.73

CPD_SMILES: Cc1cc(O)cc(C)c1/C=C/c1cncc(-c2nn[nH]n2)c1
TGT: Epidermal growth factor receptor (Homo sapiens), P00533 [L858R,T790M]
MEASURED_RESULT: 2.15

CPD_SMILES: COc1ccc(COc2ccc(Cc3cnc(N)nc3N)cc2OC)cc1
TGT: Epidermal growth factor receptor (Homo sapiens), P00533 [L858R,T790M]
MEASURED_RESULT: 2.14

CPD_SMILES: CC(C)=Cc1cccc2c1/C(=N/Nc1ccc(S(N)(=O)=O)cc1)C(=O)N2
TGT: Epidermal growth factor receptor (Homo sapiens), P00533 [L858R,T790M]
MEASURED_RESULT: 2.29

CPD_SMILES: CCn1c(-c2nonc2N)nc2c(C#CC(C)(C)O)nc(CN3CCCC3)cc21
TGT: Epidermal growth factor receptor (Homo sapiens), P00533 [L858R,T790M]
MEASURED_RESULT: -1.08

CPD_SMILES: COc1cc2ncn(-c3cc(O[C@@H](C)c4ccccc4Cl)c(C(N)=O)s3)c2cc1OC
TGT: Epidermal growth factor receptor (Homo sapiens), P00533 [L858R,T790M]
MEASURED_RESULT: 1.8

CPD_SMILES: CS(=O)(=O)Nc1ccc(N/C=C2\C(=O)Nc3ccccc32)cc1
TGT: Epidermal growth factor receptor (Homo sapiens), P00533 [L858R,T790M]
MEASURED_RESULT: 0.26

CPD_SMILES: CCn1c(-c2nonc2N)nc2cncc(C(=O)N3CCNCC3)c21
TGT: Epidermal growth factor receptor (Homo sapiens), P00533 [L858R,T790M]
MEASURED_RESULT: 0.98

----------
- TGT: Calcium/calmodulin-dependent protein kinase type IV (Homo sapiens) (UniProt Q16566)
- Sequence (whole entry): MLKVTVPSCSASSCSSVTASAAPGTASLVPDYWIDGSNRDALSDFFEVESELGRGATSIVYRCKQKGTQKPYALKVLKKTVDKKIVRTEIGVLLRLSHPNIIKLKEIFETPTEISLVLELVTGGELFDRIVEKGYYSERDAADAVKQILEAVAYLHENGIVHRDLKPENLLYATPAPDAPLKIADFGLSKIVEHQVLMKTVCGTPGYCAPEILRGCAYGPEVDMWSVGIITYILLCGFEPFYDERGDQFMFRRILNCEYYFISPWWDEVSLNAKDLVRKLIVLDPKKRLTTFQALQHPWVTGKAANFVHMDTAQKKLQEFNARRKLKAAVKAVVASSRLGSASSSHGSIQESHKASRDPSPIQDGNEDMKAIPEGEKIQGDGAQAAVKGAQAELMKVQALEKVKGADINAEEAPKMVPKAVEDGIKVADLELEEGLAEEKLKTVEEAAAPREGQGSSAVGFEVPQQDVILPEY
- EXPERIMENTAL_SETUP: at 0.1 µM
OBSERVED_PROPERTY: inhibition (%)

COMPOUND: Fc1cccc(COc2ccc(Nc3ncnc4cc(-c5ccc[nH]5)sc34)cc2Cl)c1
TGT: Calcium/calmodulin-dependent protein kinase type IV (Homo sapiens) (UniProt Q16566)
MEASURED_RESULT: 1.44
--
COMPOUND: CCCN1CCC(Oc2cc(Nc3nc(Nc4cccc(F)c4C(N)=O)c4cc[nH]c4n3)c(OC)cc2Cl)CC1
TGT: Calcium/calmodulin-dependent protein kinase type IV (Homo sapiens) (UniProt Q16566)
MEASURED_RESULT: 9.59
--
COMPOUND: CC1=C(C(=O)Nc2ccc3[nH]ncc3c2)C(c2ccc(Cl)c(Cl)c2)CC(=O)N1 (centres undefined)
TGT: Calcium/calmodulin-dependent protein kinase type IV (Homo sapiens) (UniProt Q16566)
MEASURED_RESULT: 1.22
--
COMPOUND: NC(=O)c1cccc(Nc2nccc(Nc3cccc4[nH]ncc34)n2)c1
TGT: Calcium/calmodulin-dependent protein kinase type IV (Homo sapiens) (UniProt Q16566)
MEASURED_RESULT: 1.19
--
COMPOUND: Cc1cccc(-c2n[nH]cc2-c2ccc3ncccc3n2)n1
TGT: Calcium/calmodulin-dependent protein kinase type IV (Homo sapiens) (UniProt Q16566)
MEASURED_RESULT: 1.14
--
COMPOUND: COC(=O)Nc1nc2cc(Oc3cccc(NC(=O)Nc4cc(C(F)(F)F)ccc4F)c3)ccc2[nH]1
TGT: Calcium/calmodulin-dependent protein kinase type IV (Homo sapiens) (UniProt Q16566)
MEASURED_RESULT: 1.37
--
COMPOUND: NS(=O)(=O)c1ccc(N/N=C2\C(=O)Nc3ccc(C(=O)NCCc4c[nH]cn4)cc32)cc1
TGT: Calcium/calmodulin-dependent protein kinase type IV (Homo sapiens) (UniProt Q16566)
MEASURED_RESULT: 0.01
--
COMPOUND: COc1cc2ncn(-c3cc(O[C@@H](C)c4ccccc4Cl)c(C(N)=O)s3)c2cc1OC
TGT: Calcium/calmodulin-dependent protein kinase type IV (Homo sapiens) (UniProt Q16566)
MEASURED_RESULT: -1.47
--
COMPOUND: Cc1ccc(NC(=O)c2ccnc(N3CCCC3)c2)cc1-c1ccc(C(=O)NCC2CC2)cc1
TGT: Calcium/calmodulin-dependent protein kinase type IV (Homo sapiens) (UniProt Q16566)
MEASURED_RESULT: -0.3
